Biological target: T1, Wild-type CsgG (expressed alone) (E. coli K12, UniProt P0AEA2 16-277)
T1 chain: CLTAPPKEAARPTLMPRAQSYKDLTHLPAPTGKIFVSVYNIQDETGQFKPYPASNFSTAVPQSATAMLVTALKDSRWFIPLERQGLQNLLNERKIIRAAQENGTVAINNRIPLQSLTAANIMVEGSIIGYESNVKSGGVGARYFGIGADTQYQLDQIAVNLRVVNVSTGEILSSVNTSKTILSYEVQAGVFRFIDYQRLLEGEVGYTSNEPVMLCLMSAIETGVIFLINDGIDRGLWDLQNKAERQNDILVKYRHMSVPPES
Test: ITC
Reported Property: pKd
In simple prose, pKd is minus the logarithm base ten of a concentration in moles per litre.

Using the record for GTMTFQFRNPNFGGNPR (source: synthetic peptide) [PeptideN_(N17R)] , report its pKd. 7.85
